Measured endpoint: melting point

chemical_string=CC(=O)N1CCN(c2ccc(Nc3nccc(-c4sc(NCCc5ccccc5)nc4C)n3)cc2)CC1 measured_endpoint="melting point" result="212 to 213 °C"
chemical_string=COCCNS(=O)(=O)c1cccc(Nc2nccc(-c3sc(C)nc3C)n2)c1 measured_endpoint="melting point" result="197 to 198 °C"
chemical_string=CC(=O)NCc1cccc(Nc2nccc(-c3sc(-c4ccc(C)nc4)nc3C)n2)c1 measured_endpoint="melting point" result="227 to 229 °C"

Alright, here's another compound for you.
In plain terms, COc1cc(Nc2nccc(-c3sc(NCCc4ccccc4)nc3C)n2)cc(OC)c1 has a documented melting point of 201 to 202 °C
